Reported pKi on the protein given by its sequence for assorted compounds, compiled from publications.
Protein target, amino acids: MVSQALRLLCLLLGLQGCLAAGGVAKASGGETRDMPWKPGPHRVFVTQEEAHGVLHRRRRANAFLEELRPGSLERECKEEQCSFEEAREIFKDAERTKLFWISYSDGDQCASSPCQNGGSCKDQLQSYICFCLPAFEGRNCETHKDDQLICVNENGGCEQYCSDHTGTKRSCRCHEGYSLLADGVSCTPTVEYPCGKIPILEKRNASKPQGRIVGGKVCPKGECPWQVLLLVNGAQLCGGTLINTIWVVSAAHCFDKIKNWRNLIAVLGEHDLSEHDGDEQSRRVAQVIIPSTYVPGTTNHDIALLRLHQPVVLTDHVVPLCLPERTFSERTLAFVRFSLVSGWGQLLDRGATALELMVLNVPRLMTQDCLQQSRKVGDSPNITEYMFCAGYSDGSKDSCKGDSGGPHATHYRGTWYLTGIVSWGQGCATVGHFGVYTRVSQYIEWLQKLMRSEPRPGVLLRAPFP
Reminder that pKi is minus the log10 of a molar concentration.

Challenge: Given the compound CSCc1nc(Cc2ccccc2)n(CC(=O)N[C@@H](CCCCN)B2O[C@@H]3C[C@@H]4C[C@@H](C4(C)C)[C@]3(C)O2)n1 , what is its reported pKi?
Response given: 5.60

Challenge: Given the compound C[C@@H](NC(=O)CNC(=O)Nc1ccc(C(=N)N)cc1)c1ccc2ccccc2c1 , what is its reported pKi?
Response given: 5.15

Challenge: Given the compound COc1cccc([C@H](C)NC(=O)CNC(=O)Nc2ccc(C(=N)N)cc2)c1 , what is its reported pKi?
Response given: 7.46
